Where do the numbers come from? From patent US9771327B2.

# test-system: human ΔF508-CFTR (Homo sapiens, UniProt P13569, DEL508-508)
# Sequence (P13569 with tags, fused parts or gaps DEL508-508): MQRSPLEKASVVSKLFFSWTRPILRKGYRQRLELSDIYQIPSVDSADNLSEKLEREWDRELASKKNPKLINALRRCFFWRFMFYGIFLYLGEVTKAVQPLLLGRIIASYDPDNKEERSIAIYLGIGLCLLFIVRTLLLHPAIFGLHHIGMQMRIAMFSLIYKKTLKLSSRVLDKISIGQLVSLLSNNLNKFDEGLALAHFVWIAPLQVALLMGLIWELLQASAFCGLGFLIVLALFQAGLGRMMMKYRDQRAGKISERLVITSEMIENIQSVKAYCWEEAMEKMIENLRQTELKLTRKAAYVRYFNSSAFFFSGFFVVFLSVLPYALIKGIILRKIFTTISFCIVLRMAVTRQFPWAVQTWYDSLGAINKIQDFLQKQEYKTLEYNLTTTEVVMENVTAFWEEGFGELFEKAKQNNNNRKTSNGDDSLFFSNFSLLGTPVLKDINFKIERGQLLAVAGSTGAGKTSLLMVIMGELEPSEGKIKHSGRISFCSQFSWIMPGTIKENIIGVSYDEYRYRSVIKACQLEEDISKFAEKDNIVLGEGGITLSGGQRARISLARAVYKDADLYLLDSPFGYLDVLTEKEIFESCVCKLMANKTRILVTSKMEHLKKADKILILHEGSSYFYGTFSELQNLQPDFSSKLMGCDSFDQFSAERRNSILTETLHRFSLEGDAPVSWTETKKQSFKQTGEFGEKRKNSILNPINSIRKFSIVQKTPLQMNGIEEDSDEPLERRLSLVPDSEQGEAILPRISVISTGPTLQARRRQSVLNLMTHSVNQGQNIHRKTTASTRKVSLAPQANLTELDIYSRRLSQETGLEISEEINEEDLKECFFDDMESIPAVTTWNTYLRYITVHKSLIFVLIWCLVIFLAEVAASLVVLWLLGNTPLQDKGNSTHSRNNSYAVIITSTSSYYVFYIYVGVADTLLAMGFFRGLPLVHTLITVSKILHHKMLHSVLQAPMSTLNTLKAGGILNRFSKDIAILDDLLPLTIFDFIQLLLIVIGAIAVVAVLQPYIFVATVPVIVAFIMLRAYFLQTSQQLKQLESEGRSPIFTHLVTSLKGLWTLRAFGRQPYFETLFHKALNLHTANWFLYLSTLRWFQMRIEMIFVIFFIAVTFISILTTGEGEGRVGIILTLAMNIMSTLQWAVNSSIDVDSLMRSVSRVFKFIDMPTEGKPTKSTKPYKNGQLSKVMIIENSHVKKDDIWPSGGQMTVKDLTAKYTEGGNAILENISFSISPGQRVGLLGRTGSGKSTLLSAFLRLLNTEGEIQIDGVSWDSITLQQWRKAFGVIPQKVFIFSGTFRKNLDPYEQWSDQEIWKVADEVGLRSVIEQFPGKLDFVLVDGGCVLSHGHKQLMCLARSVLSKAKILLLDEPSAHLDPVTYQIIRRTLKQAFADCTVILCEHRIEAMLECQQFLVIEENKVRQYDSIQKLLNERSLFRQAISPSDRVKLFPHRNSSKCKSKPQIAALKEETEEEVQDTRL
# protocol-text: CFTR-YFP high throughput assay, CFTR corrector protocol (YFP iodide flux quench)
# study-conditions: FRT cells expressing human ΔF508-CFTR and YFP-H148Q/I152L; 24-26 h incubation with compound; stimulated with 20 μM Forskolin & 30 μM P3
readout-kind: EC50

Report EC50 for Cc1ccc2nc(-c3ccncc3Cl)n(C3CCN(S(=O)(=O)c4ccc5c(c4)OC(F)(F)O5)CC3)c2n1 tested on human ΔF508-CFTR (Homo sapiens, UniProt P13569, DEL508-508). < 10 µM

Lab request: please report EC50 under test system human ΔF508-CFTR (Homo sapiens, UniProt P13569, DEL508-508) for COc1ccc(C(=O)N2CCC(n3c(-c4ccccc4)nc4cccnc43)CC2)cc1Cl > 20 µM

Param readout = EC50; param system = human ΔF508-CFTR (Homo sapiens, UniProt P13569, DEL508-508); param query = COc1ccc(S(=O)(=O)N2CCC(n3c(-c4ccccc4)nc4cccnc43)CC2)cc1Cl ; response: value 10 to 20 µM

Item COc1ccc(S(=O)(=O)N2CCC(n3c(-c4cccc(Cl)c4)nc4cccnc43)CC2)cc1Cl with human ΔF508-CFTR (Homo sapiens, UniProt P13569, DEL508-508) - EC50? < 10 µM
